Test system: warm season plant species
test-summary: B2 Post-emergence efficacy Test 2, warm season plant species
Type: in vivo
conditions: Orysa sativa, 250 g/Ha, 15 days after application, 0-100 scale, 0=no damage, 100=total kill
Herbicidal activity, ORYSA overview

smiles-code | Herbicidal activity, ORYSA
Cc1nn(C)c(=O)c(-c2c(F)ccc(Cl)c2CCc2ccc(F)cc2)c1O | 10
Cc1nn(C)c(=O)c(-c2c(F)ccc(Cl)c2CCc2ccc(F)cc2)c1OC(=O)C(C)C | 0
Cc1nn(C)c(=O)c(-c2c(F)ccc(Cl)c2CCc2ccc(C#N)cc2)c1O | 20
Cc1nn(C)c(=O)c(-c2c(F)ccc(Cl)c2CCc2ccccc2C(F)(F)F)c1O | 20
Cc1nn(C)c(=O)c(-c2c(F)ccc(Cl)c2CCc2ccc(Cl)cc2)c1OC(=O)C(C)C | 20
